# EXPERIMENT_DESCRIPTION: Inhibition of Bacillus stearothermophilus alpha-glucosidase
# Set-up: species or system Geobacillus stearothermophilus
pIC50: −log10 of the molar value.
Task for the reader: assign each of the following compounds its reported pIC50.

Prompt: Report pIC50 for COc1ccc([C@H]2N[C@H](CO)[C@@H](O)[C@@H]2O)cc1
Completion: 5.06

Prompt: Report pIC50 for COc1ccc(OC)c([C@@H]2[C@@H](O)[C@H](O)[C@@H](CO)N2C)c1
Completion: < 3.70

Prompt: Report pIC50 for COc1ccc([C@@H]2[C@@H](O)[C@H](O)[C@@H](CO)N2C)cc1O
Completion: < 3.70

Prompt: Report pIC50 for COc1ccc([C@H]2[C@H](O)[C@@H](O)[C@H](CO)N2C)cc1
Completion: < 3.70

Prompt: Report pIC50 for COc1ccc([C@@H]2N[C@@H](CO)[C@H](O)[C@H]2O)cc1OC
Completion: < 3.70

Taken from ChEMBL document CHEMBL1139243.
